// reported MIC per item
Tested on: Staphylococcus aureus
Assay Details: Tested for inhibition of visible growth of Staphylococcus aureus
Format: functional
Readout Name: MIC (µg/mL)

>>> assay_value("CC(=O)OCC1=C(C(=O)O)N2C(=O)C(NC(=O)C(N)c3ccc4c(c3)OCO4)C2SC1 (racemic)")
6.2
>>> assay_value("CC1(C)S[C@@H]2[C@H](NC(=O)C(C(=O)O)c3ccccc3)C(=O)N2[C@H]1C(=O)O (some centres not stated)")
25
>>> assay_value("CC1=C(C(=O)O)N2C(=O)C(NC(=O)C(N)c3cccc4c3OCO4)C2SC1 (configuration not stated)")
6.2
>>> assay_value("CC1=C(C(=O)O)N2C(=O)C(NC(=O)C(N)c3ccc4c(c3)CCO4)C2SC1 (racemic)")
3.1
>>> assay_value("CC(=O)OCC1=C(C(=O)O)N2C(=O)C(NC(=O)C(O)c3ccc4c(c3)OCO4)C2SC1 (racemic)")
3.1
>>> assay_value("CC(=O)OCC1=C(C(=O)O)N2C(=O)C(NC(=O)C(N)c3cccc4c3OCO4)C2SC1 (racemic)")
3.1
>>> assay_value("CC1=C(C(=O)O)N2C(=O)C(NC(=O)C(N)c3ccc4c(c3)OCCO4)C2SC1 (mixture of isomers)")
6.2
>>> assay_value("Cc1nnc(SCC2=C(C(=O)O)N3C(=O)C(NC(=O)[C@H](N)c4ccc5c(c4)OCO5)C3SC2)s1 (some centres not stated)")
3.1
>>> assay_value("CC1=C(C(=O)O)N2C(=O)C(NC(=O)[C@H](N)c3ccc4c(c3)OCCO4)C2SC1 (some centres not stated)")
3.1
>>> assay_value("CC(=O)OCC1=C(C(=O)O)N2C(=O)C(NC(=O)[C@H](N)c3ccc4c(c3)CCO4)C2SC1 (some centres not stated)")
3.1
>>> assay_value("CC1=C(C(=O)O)N2C(=O)C(NC(=O)[C@H](N)c3ccc4c(c3)CCO4)C2SC1 (some centres not stated)")
1.6
>>> assay_value("CC1(C)SC2C(NC(=O)[C@H](N)c3ccc4c(c3)CCO4)C(=O)N2C1C(=O)O (some centres not stated)")
100
>>> assay_value("CC1(C)SC2C(NC(=O)C(N)c3ccc4c(c3)OCO4)C(=O)N2C1C(=O)O (configuration not stated)")
100
>>> assay_value("CC1=C(C(=O)O)N2C(=O)[C@@H](NC(=O)[C@H](N)c3ccccc3)[C@H]2SC1 [CEPHALEXIN ANHYDROUS]")
3.1
>>> assay_value("CC(=O)OCC1=C(C(=O)O)N2C(=O)C(NC(=O)C(O)c3ccc4c(c3)CCO4)C2SC1 (racemic)")
3.1
>>> assay_value("CC1=C(C(=O)O)N2C(=O)C(NC(=O)[C@H](N)c3ccc4c(c3)OCO4)C2SC1 (some centres not stated)")
3.1
>>> assay_value("Cc1nnc(SCC2=C(C(=O)O)N3C(=O)C(NC(=O)[C@H](N)c4ccc5c(c4)CCO5)C3SC2)s1 (some centres not stated)")
3.1
